- measurement_notes: Pharmacokinetic study in rats
- Assay type: in vivo
- condition_summary: whole blood; rat, SC 10 mg/kg
observable: Tmax (min)
Supply the numeric figure in min, leaving out any unit text.

Recorded Tmax (compound CCN(CC)C(=O)C(c1ccccc1)N1CCN(c2ccc(NC(=O)c3ccccc3-c3cccnc3)cc2F)CC1 (racemic) ): 30
